tested on: ATCC M. furfur 14521; construct: ATCC 14521; assay: microbe, parasite or virus in culture; details: Malassezia furfur
measurement-name: MIC (µg/mL)
Please reply with the bare figure in µg/mL and do not write the unit itself.

The cases that follow already have their MIC on record.
NS(=O)(=O)c1ccc(NC(=[Se])Nc2ccccc2Cl)cc1 [3e]    5.3
NS(=O)(=O)c1cccc(NC(=[Se])NC(=O)c2ccc(Br)cc2F)c1 [8g]    8
NS(=O)(=O)c1ccc(CCNC(=[Se])NC(=O)c2ccccc2)cc1 [9a]    4

Next item in the queue.
Task: I would be grateful if you could share the reported MIC for NS(=O)(=O)c1ccc(O)c(NC(=[Se])NC(=O)c2cc(Br)cc(OC(F)(F)F)c2)c1 [11i] .
Output: 5
